Biological target: Aβ(1-42) fibrils 1-42 (Homo sapiens, UniProt P05067)
Sequence (P05067 1-42): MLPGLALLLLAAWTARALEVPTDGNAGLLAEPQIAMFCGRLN
Experiment: SPR
Ends that are not written are not given here.
METRIC NAME: pKd
Scale: pKd equals -log10([C]), with [C] in mol/L.

INSERT INTO measurements (binder, value_measured) VALUES
  ('LPFFD (also: conjugated to AGuIX nanoparticle via PEG, labelled with Cy5.5, attachment sites not given here) [AGuIX@PEG@LPFFD@Cy5.5]', 3.58);

From here, focus on the item given below.
// recorded pKd for LPFFD [LPFFD peptide] : 3.50
